Hey, just so you know, these numbers are from patent US20030068675.

system_under_test: T1, ZFP SBS#547 (synthetic)
T1 chain: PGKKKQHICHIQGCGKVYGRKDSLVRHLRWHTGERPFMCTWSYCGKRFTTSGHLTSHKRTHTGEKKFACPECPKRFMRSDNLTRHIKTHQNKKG
assay_notes: EMSA
experimental_parameters: tags: MBP fusion
property: Kd (nM)

| binder | result |
| --- | --- |
| GAGTGTGTGA (dsDNA) DNA 1: GAGTGTGTGA DNA 2: TCACACACTC | 500 |
